STUDY TARGET: human P2X7 receptor (Homo sapiens, UniProt Q99572, R270H/Y155H)
ASSAY PROTOCOL: Evaluation of human P2X7 receptor inhibitory activity (Yo-Pro uptake, BzATP stimulation, FLIPR TETRA)
Assay type: cell-based
SETUP CONDITIONS: 1321N1 cells stably expressing human P2X7 receptor; BzATP stimulation, Yo-Pro uptake; read-out: IC50 (antagonistic activity for the human P2X7 receptor), class symbol
pIC50: −log10 of the molar value.
Listed here are molecules together with their documented pIC50.

CCc1c(Nc2nc(=O)c(OC)cn2Cc2cccc(Cl)c2)cc(OC)cc1OC ... > 8.00
COc1cc(C)cc(Nc2nc(=O)c(OC)cn2Cc2ccc(F)cc2)c1C ... > 8.00
Cc1c(Cl)cccc1Nc1nc(=O)c(C(=O)OC(C)(C)C)cn1Cc1ccccc1 ... 6.30 to 7.00
COc1cn(Cc2cc(F)cc(Cl)c2)c(Nc2cc3[nH]ncc3cc2C)nc1=O ... 7.00 to 8.00
COc1cn(Cc2ccccc2)c(Nc2cc(C)ccc2Cl)nc1=O ... 7.00 to 8.00

Task: Reported pIC50 for `COc1cc(C)c(Nc2nc(=O)c(OC)cn2Cc2ccc(F)c(Cl)c2)cc1C` : what is it?
Result: > 8.00

Task: `CCc1cc(OC)c(OC)cc1Nc1nc(=O)c(F)cn1Cc1ccc(F)c(Cl)c1` , same question.
Result: > 8.00

Task: `Cc1c(Cl)cccc1Nc1nc(=O)c(Cl)cn1Cc1ccccc1` , same question.
Result: 7.00 to 8.00

Task: `COc1ccc(Nc2nc(=O)c(OC)cn2Cc2ccc(F)c(Cl)c2)c(C)c1` , same question.
Result: 7.00 to 8.00

Task: `COc1cc(C)c(Nc2nc(=O)c(OC)cn2Cc2ccccc2)cc1C` , same question.
Result: > 8.00

Value source: patent US10774051B2
